- Test system: Staphylococcus aureus
- protocolNotes: Minimum inhibitory concentration against Staphylococcus aureus ATCC 2977
- Format: functional
reportedEndpoint: MIC (µg/mL)

# compound, reportedEndpoint, measurementQualifier, quantitativeReadout
records = [
    ("CC(=O)O[C@H]1C[C@@]2(C)[C@@H](CC(O)[C@H]3[C@@]4(C)CCC(O)C(C)[C@@H]4CC[C@]32C)/C1=C(\\CCC=C(C)C)C(=O)O (some centres undefined)", "MIC", "=", 0.006),
    ("CC(=O)O[C@H]1C[C@@]2(C)C(CC(O)[C@H]3[C@@]4(C)CCC(O)C(C)C4CC[C@@]32C)[C@@H]1[C@H](CCCC(C)C)C(=O)O (some centres undefined)", "MIC", "=", 4),
    ("CC(=O)O[C@H]1C[C@@]2(C)C(CC(O)[C@H]3[C@@]4(C)CCC(O)C(C)C4CC[C@@]32C)C1[C@@H](CCC=C(C)C)C(=O)O (some centres undefined)", "MIC", ">", 125),
    ("CC(=O)O[C@H]1C[C@@]2(C)C(CC(O)[C@H]3[C@@]4(C)CCC(O)C(C)C4CC[C@]32C)C1[C@H](CCC=C(C)C)C(=O)O (some centres undefined)", "MIC", "=", 0.03),
]
